# Tested on: SK-MEL-2 melanoma
# testProtocol: NCI-60 one-dose screen, 48 h
# experimentalConditions: 10 µM unless noted
Compounds without any hit were thinned out: in the full panel of roughly 83,000, 20% have a hit. Calls of active or inactive are those of the source. The calls were made as follows: active = growth percent below 10; inactive = the rest.
Respond using exactly one of the listed classes: active, inactive

Example results:
molecule	systemUnderTest	cat
NCCCCCNc1noc(Cc2c[nH]c3cc(Br)ccc23)n1	SK-MEL-2 melanoma	active
COc1ccc(C(=O)/C=C/c2ccc(Cl)cc2)cc1S(N)(=O)=O	SK-MEL-2 melanoma	inactive
Nc1nc(N)c2c(n1)NC(c1cccc(Nc3ccnc4cc(C(F)(F)F)ccc34)c1)CC(c1ccc(Cl)cc1)=N2 (stereo unspecified)	SK-MEL-2 melanoma	inactive

## Task Recorded test call requested for CSc1nc(N)c2c(n1)NC(c1ccccc1)C1CCc3ccccc3C1=N2 (stereo unspecified)
## Result inactive

## Task # fetch the recorded call for CN(CCNc1ccc(C(=N)N)cc1)c1ccc(C(=N)N)cc1 here
## Result inactive

## Task # outcome recorded in this test, key = CCOC(=O)CC1CSC(N/N=C/c2ccc(O)cc2)=N1 (stereo unspecified)
## Result inactive

## Task Please share the test call associated with CNC1=C([N+](=O)[O-])C(c2ccc(OC)cc2)C(C#N)=C(c2ccc[nH]2)O1 (stereo unspecified) .
## Result inactive

## Task What outcome does the record of this test show for Cc1ccccc1NC(=O)c1sc2nc3c(cc2c1N)CCCC3 ?
## Result inactive

## Task For this molecule, state the assay outcome: COc1cccc(C(=O)Nc2cccc(NC(=O)c3ccccn3)c2)c1
## Result inactive

## Task # lookup: test call for COC1=C(OC)C(=O)C(CCCCCCCCCCO)=C(C)C1=O
## Result inactive

## Task What is the recorded call for this molecule in the test? Cc1ccc(S(=O)(=O)c2nc(-c3ccccc3)oc2S(C)=O)cc1 (stereo unspecified)
## Result inactive

## Task Test call, this molecule: Cn1cc(-c2nc(-c3c[nH]c4c(Cl)nccc34)cs2)c2ccccc21
## Result inactive

====

# Test system: NCI-H23 lung
# testProtocol: NCI-60 one-dose screen, 48 h
# experimentalConditions: 10 µM unless noted
Compounds without any hit were thinned out: in the full panel of roughly 83,000, 20% have a hit. The source made the active and inactive calls. The calls were made as follows: active = growth percent below 10; inactive = the rest.
Could you please pick one outcome from this set? y = active, n = inactive

Solved cases (4 shown):
sampleSmiles	cat
O=C(Nc1cccc(Cn2c(=O)[nH]c3ccc(Oc4ncccn4)cc3c2=O)c1)c1cccc(Cl)c1	n
C=C(c1ccc(C(=O)O)c(F)c1)c1cc2c(cc1C)C(C)(C)C=CC2(C)C	n
C=CN(C(=O)N1CCN(c2cc3c(cc2F)c(=O)c(C(=O)O)cn3C2CC2)CC1)c1nc(-c2ccc(C)cc2)cs1	n
O=C(Nc1ccccc1CNc1nc(Nc2ccc(OCCN3CCCC3)cc2)ncc1Cl)NC1CCCCC1	n

## Task What is the recorded call for this compound in the test? Cc1c2cnccc2c(C)c2c1c1cc(C(=O)O)ccc1n2C
## Result y

## Task Can you look up the reported call for O=C(Nc1cccc(Cl)c1)Oc1c(Cl)c(Cl)c(Cl)c(Cl)c1Cl for me?
## Result n

## Task Record lookup: outcome of this test for COC(=O)c1cc(-c2ccc(OC)c(OC)c2)[nH]c1N/N=C/c1c(Cl)cccc1Cl ?
## Result n

## Task For Cc1ccc(Nc2cc(N)nc(N)n2)cc1 , what call appears in the results of this test?
## Result n

## Task I'd appreciate the recorded outcome for COc1ccc2c(c1)c(-c1nc(-c3cn(C)c4ccncc34)cs1)cn2C from this test.
## Result n

## Task Entry COc1cccc(-c2cc(-c3ccc(Nc4nc(Nc5ccc(Cl)cc5)nc(Nc5ccc(Cl)cc5)n4)cc3)nc(N)c2C#N)c1 : call = ?
## Result n

Data credit: PubChem BioAssay (NCI)
